Substrate: PET
Test Details: Proxy for plastic degradation [HPLC-UV]
Experimental Conditions: pH 9; 30 °C; 24 h

{"Protein": "unnamed (protein) MNFPRASRLMQAAVLGGLMAVSAAATAQTNPYARGPNPTAASLEASAGPFTVRSFTVSRPSGYGAGTVYYPTNAGGTVGAIAIVPGYTARQSSIKWWGPRLASHGFVVITIDTNSTLDQPSSRSSQQMAALRQVASLNGTSSSPIYGKVDTARMGVMGWSMGGGGSLISAANNPSLKAAAGQAPWDSSTNFSSVTVPTLIFACENDSIAPVNSSALPIYDSMSRNAKQFLEINGGSHSCANSGNSNQALIGKKGVAWMKRFMDNDTRYSTFACENPNSTRVSDFRTANCS", "Unit Text": "µM", "Proxy for plastic degradation": 2.3}
{"Protein": "unnamed (protein) MNFPRASRLMQAAVLGGLMAVSAAATAQTNPYARGPNPTAASLEASAGPFTVRSFTVSRPSGYGAGTVYYPTNAGGTVGAIAIVPGYTARQSSIKWWGPRLASHGFVVITIDTNSTLDQPDSRSSQQMAALRQVASLNGTSSSPIYGKVDTARMGVMGWSMGGGGSLISAANNPSLKAAAPQAPWHSSTNFSSVTVPTLIFACENDSIAPVNSSALPIYDSMSRNAKQFLEINGGSHSCANSGNSNQALIGKKGVAWMKRFMDNDTRYSTFACENPNSTAVSDFRTANCS", "Unit Text": "µM", "Proxy for plastic degradation": 22.2}
